MEASURED TARGET: Focal Adhesion Kinase (FAK) (Homo sapiens)
Sequence (Q05397 384-706): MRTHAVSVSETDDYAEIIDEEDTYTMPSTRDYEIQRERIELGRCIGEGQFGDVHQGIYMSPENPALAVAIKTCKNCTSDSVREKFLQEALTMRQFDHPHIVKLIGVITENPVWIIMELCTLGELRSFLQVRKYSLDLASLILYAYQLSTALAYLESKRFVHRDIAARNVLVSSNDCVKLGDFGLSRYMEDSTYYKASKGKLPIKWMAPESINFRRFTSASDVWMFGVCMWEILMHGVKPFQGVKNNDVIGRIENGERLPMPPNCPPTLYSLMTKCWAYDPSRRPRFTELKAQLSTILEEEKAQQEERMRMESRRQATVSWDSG
MEASUREMENT DESCRIPTION: FAK assay system (Focal Adhesion Kinase inhibition)
Format: biochemical
CONDITION NOTES: read-out: FAK IC50
MEASURED PARAMETER: pIC50
Give only the number. pIC50 is defined as minus log10 of concentration in molar units.

SMILES REPR: CNS(=O)(=O)c1ccccc1Nc1nc(Nc2cc(-c3ccncc3)ccc2OC)ncc1Br
NUMERIC RESULT: 8.10

Note pIC50 for the compound shown: CC(C)NS(=O)(=O)c1ccccc1Nc1nc(Nc2ccc(N3CCOCC3)cc2F)ncc1Cl
8.14

Supply reported pIC50 belonging to this compound: CNS(=O)(=O)c1ccccc1Nc1nc(Nc2cc(C(=O)N3CCN(C)CC3)ccc2OC)ncc1Br
7.41

Find the measured pIC50 of CNS(=O)(=O)c1ccccc1Nc1nc(Nc2ccccc2C)ncc1Br and report it.
7.80

====

MEASURED TARGET: FAK (Mus musculus, UniProt P34152)
Sequence (P34152 2-1052): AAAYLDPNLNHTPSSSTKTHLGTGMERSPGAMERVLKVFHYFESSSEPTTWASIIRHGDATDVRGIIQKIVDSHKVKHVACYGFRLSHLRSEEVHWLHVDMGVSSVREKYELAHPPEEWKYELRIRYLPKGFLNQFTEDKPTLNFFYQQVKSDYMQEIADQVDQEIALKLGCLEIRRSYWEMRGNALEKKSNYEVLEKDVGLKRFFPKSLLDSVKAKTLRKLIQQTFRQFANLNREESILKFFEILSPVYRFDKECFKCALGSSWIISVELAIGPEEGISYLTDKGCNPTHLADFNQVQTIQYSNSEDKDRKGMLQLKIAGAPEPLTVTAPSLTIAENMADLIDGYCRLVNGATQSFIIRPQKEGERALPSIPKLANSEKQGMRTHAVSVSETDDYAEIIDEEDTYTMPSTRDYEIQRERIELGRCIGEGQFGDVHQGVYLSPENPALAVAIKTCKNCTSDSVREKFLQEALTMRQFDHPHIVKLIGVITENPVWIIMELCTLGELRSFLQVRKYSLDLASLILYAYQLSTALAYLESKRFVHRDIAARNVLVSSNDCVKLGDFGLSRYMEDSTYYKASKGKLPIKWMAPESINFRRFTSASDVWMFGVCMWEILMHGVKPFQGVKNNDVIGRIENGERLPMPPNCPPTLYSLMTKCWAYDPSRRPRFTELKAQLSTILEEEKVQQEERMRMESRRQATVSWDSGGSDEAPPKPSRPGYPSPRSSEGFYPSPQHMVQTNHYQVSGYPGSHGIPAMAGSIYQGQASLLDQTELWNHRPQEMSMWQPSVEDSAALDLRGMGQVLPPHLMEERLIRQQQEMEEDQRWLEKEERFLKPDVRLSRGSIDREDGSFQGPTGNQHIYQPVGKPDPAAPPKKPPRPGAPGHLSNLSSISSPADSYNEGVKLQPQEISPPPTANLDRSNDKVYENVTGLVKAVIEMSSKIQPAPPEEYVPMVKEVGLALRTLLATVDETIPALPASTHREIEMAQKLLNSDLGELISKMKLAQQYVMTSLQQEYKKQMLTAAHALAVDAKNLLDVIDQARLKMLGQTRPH
MEASUREMENT DESCRIPTION: Phos IC50 (phosphorylation)
Below: a set of entries, each annotated with reported pIC50.
The quantity pIC50 is defined as the negative base-10 logarithm of the molar concentration.

SMILES REPR: CNS(=O)(=O)c1ccccc1Nc1nc(Nc2cc(N(C)C)ccc2OC)ncc1Br
pIC50: 6.89
//
SMILES REPR: CNS(=O)(=O)c1ccccc1Nc1nc(Nc2cc(-c3ccccc3)ccc2OC)ncc1Br
pIC50: 6.30
//
SMILES REPR: CCS(=O)(=O)c1ccccc1Nc1nc(Nc2ccc(N3CCC(N4CCN(C)CC4)CC3)cc2OC)ncc1Cl
pIC50: 6.30
//
SMILES REPR: COc1cc(N2CCOCC2)ccc1Nc1ncc(Br)c(Nc2ccccc2S(=O)(=O)N(C)C)n1
pIC50: 7.89
//
SMILES REPR: COc1cc(N2CCC(N3CCOCC3)CC2)ccc1Nc1ncc(Cl)c(Nc2ccccc2S(=O)(=O)C(C)C)n1
pIC50: 7.00
//
SMILES REPR: CNS(=O)(=O)c1ccccc1Nc1nc(Nc2cc(OC3CCN(C)CC3)ccc2OC)ncc1Br
pIC50: 6.54
//
SMILES REPR: CNC(=O)c1cc(N2CCN(C)CC2)ccc1Nc1nc(Nc2cccc3c2ccn3C)ncc1Cl
pIC50: 6.15

# return recorded pIC50 for entry CNS(=O)(=O)c1ccccc1Nc1nc(Nc2ccc(OC3CCN(C)CC3)cc2OC)ncc1Cl
6.07

====

MEASURED TARGET: UniProt Q05397
MEASUREMENT DESCRIPTION: FAK assay system (Focal Adhesion Kinase inhibition)
Type: biochemical
CONDITION NOTES: FAK IC50
MEASURED PARAMETER: IC50 (nM)
Answer with a number only, understood to be in nM.

Observe how each entry below is paired with its result.
COMPOUND: COc1cc(OCC(C)(C)CN(C)C)ccc1Nc1ncc(Cl)c(Nc2ccccc2S(=O)(=O)NC(C)C)n1 [Example 19-24]
IC50 / nM: 1.8

COMPOUND: CNS(=O)(=O)c1ccccc1Nc1nc(Nc2cccc3cn[nH]c23)ncc1Br [Example 3-13]
IC50 / nM: 58

COMPOUND: CNC(=O)c1ccccc1Nc1nc(Nc2ccc(N3CCC[C@H](C(N)=O)C3)cc2OC)ncc1Cl [Example 7-18]
IC50 / nM: 6.2

COMPOUND: CNC(=O)c1ccccc1Nc1nc(Nc2ccc(N3CCC[C@@H](C(N)=O)C3)cc2OC)ncc1Cl [Example 7-17]
IC50 / nM: 4.3

COMPOUND: CCCS(=O)(=O)c1ccccc1Nc1nc(Nc2ccc(N3CCC(C(N)=O)CC3)cc2OC)ncc1Cl [Example 26-5]
IC50 / nM: 2.1

Annotate the compound COc1cc(N2CCC(N(C)C)C2)ccc1Nc1ncc(Cl)c(Nc2ccccc2S(=O)(=O)NC(C)C)n1 (stereo not shown) [Example 19-9] with its measured IC50.
1.3
